These measurements were taken from PubChem BioAssay (Tox21).

# Assay comment: Caspase-3/7 induction in HepG2 cells by small molecules, qHTS cell viability counter screen (AID 1346981); further: nearly all actives have a fitted effect of over 30% in size
# Condition: CellTiter-Fluor fluorescence, 17 h; series mostly up to 92.4 µM
Inconclusive results are not listed. Calls of active or inactive are those of the source. The call rests on the fitted dose curve; in most records, active means well fitted cell-killing curve with a large enough effect in the repeat runs; inconclusive means weak or mixed curves, or effect the other way; inactive means flat fitted curve, though single readings scatter.
Can you answer with just one of these options? yes (1) = active, no (0) = inactive

# outcome recorded in this test, key = "NS(=O)(=O)O"
no (0)

More entries:
# outcome recorded in this test, key = "CCOc1ccc(NC(C)=O)cc1"
no (0)

# outcome recorded in this test, key = "O=C1O[C@H]([C@@H](O)CO)C(O)=C1O"
no (0)

# outcome recorded in this test, key = "O=C1NC(=O)C(c2ccccc2)(c2ccccc2)N1"
no (0)

# outcome recorded in this test, key = "Cc1ccc(S(=O)(=O)O)cc1"
no (0)

# outcome recorded in this test, key = "OC[C@H]1O[C@H](O[C@]2(CCl)O[C@H](CCl)[C@@H](O)[C@@H]2O)[C@H](O)[C@@H](O)[C@H]1Cl"
no (0)

# outcome recorded in this test, key = "Nc1ccc(O)c([N+](=O)[O-])c1"
yes (1)
